The origin of these recorded values is ChEMBL document CHEMBL5365439.

- measurement_target: Mu-type opioid receptor (Mus musculus)
- assay_text: Displacement of [3H]diprenorphine from mouse MOR expressed in HEK293 cell membrane at 10 uM incubated for 1 hr by radioligand displacement assay
- Type: cell membranes
The source made the active and inactive calls. The rule behind the calls is not given here. Numbered stars: 1 amine (or outer) side, 2 acyl side, 3 side chain; on linkers, the order of the positions; unused ones are H or OH. Bridge positions count the residues as written; N and C are the ends. Square brackets hold non-standard residues; d marks the D form. Peptide text beside a SMILES is read from it. CH2COCH2 = O=C(C[*:1])C[*:2]; CH2 = C([*:1])[*:2]; Mpa = O=C(O)CCS
readout_label: Activity

>>> experimental_value("CC(C)C[C@H](NC(=O)[C@H](CCCCN)NC(=O)[C@@H]1CCCN1C(=O)[C@H](CCCNC(=N)N)NC(=O)[C@@H]1CSCSCCC(=O)N[C@@H](Cc2ccc(O)cc2)C(=O)NCC(=O)NCC(=O)N[C@@H](Cc2ccccc2)C(=O)N[C@@H](CC(C)C)C(=O)N[C@@H](CCCNC(=N)N)C(=O)N[C@@H](CCCNC(=N)N)C(=O)N1)C(=O)N[C@@H](CCCCN)C(=O)O ([Mpa]YGGFLRRCRPKLK-OH; linker 1-9 via CH2)")
"inactive"
>>> experimental_value("CC(C)C[C@H](NC(=O)[C@H](CCCCN)NC(=O)[C@@H]1CCCN1C(=O)[C@H](CCCNC(=N)N)NC(=O)[C@@H]1CSCSCCC(=O)N[C@@H](Cc2ccc(O)cc2)C(=O)NCC(=O)NCC(=O)N[C@@H](Cc2ccccc2)C(=O)N[C@@H](CC(C)C)C(=O)N[C@@H](CCCNC(=N)N)C(=O)N[C@@H](CCCNC(=N)N)C(=O)N1)C(=O)N[C@@H](CCCCN)C(N)=O ([Mpa]YGGFLRRCRPKLK-NH2; linker 1-9 via CH2)")
"inactive"
>>> experimental_value("CC(C)C[C@H](NC(=O)[C@H](CCCCN)NC(=O)[C@@H]1CCCN1C(=O)[C@H](CCCNC(=N)N)NC(=O)[C@@H]1CSCC(=O)CSCCC(=O)N[C@@H](Cc2ccc(O)cc2)C(=O)NCC(=O)NCC(=O)N[C@@H](Cc2ccccc2)C(=O)N[C@@H](CC(C)C)C(=O)N[C@@H](CCCNC(=N)N)C(=O)N[C@@H](CCCNC(=N)N)C(=O)N1)C(=O)N[C@@H](CCCCN)C(=O)O ([Mpa]YGGFLRRCRPKLK-OH; linker 1-9 via CH2COCH2)")
"inactive"
